Target: MOR (Homo sapiens)
Construct: expressed in transfected cells; host or cells: CHO-K1/OP3 (name from the earlier reading)
Sequence (P35372 whole entry): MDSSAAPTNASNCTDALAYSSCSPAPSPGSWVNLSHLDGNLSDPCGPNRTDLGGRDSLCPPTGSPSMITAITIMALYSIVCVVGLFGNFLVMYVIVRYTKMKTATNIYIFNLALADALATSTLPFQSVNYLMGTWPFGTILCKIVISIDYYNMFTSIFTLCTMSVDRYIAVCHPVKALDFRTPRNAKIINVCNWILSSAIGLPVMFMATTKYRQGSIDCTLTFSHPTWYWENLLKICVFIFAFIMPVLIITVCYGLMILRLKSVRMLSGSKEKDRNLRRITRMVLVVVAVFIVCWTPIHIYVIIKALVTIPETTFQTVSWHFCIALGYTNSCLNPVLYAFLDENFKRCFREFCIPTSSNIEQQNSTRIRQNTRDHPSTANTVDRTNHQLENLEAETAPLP
Assay: Agonist test on MOR, cAMP level (CHO-K1/OP3 cells, cAMP assay kit)
Format: cell-based
Details: maximal effect of DAMGO is 100%, read-out: Emax agonizing MOR receptor to affect cAMP level
For each record, write down the corresponding Emax.
Give the value, in units of %, as a plain number.

# Emax lookup, item `Fc1ccc([C@]2(CCN[C@H]3Cc4cccc(Br)c4C3)CCOC3(CCOCC3)C2)nc1`
104

Similarly, Fc1ccc(C2(CCN[C@H]3CCc4c(Cl)cccc43)CCOC3(CCOCC3)C2)nc1 (stereo partly shown) ?
111

What about this molecule? Fc1ccc(C2(CCNC3Cc4cccc(Br)c4C3)CCOC3(CCOCC3)C2)nc1 (stereo not shown)
80.9

Same read-out for c1ccc(C2(CCNC3CCc4ccccc43)CCOC3(CCOCC3)C2)nc1 (stereo not shown) ?
96.9
